The origin of these recorded values is ChEMBL document CHEMBL1275375.

Target: Prostaglandin G/H synthase 2 (Homo sapiens)
Sequence (P35354 whole entry): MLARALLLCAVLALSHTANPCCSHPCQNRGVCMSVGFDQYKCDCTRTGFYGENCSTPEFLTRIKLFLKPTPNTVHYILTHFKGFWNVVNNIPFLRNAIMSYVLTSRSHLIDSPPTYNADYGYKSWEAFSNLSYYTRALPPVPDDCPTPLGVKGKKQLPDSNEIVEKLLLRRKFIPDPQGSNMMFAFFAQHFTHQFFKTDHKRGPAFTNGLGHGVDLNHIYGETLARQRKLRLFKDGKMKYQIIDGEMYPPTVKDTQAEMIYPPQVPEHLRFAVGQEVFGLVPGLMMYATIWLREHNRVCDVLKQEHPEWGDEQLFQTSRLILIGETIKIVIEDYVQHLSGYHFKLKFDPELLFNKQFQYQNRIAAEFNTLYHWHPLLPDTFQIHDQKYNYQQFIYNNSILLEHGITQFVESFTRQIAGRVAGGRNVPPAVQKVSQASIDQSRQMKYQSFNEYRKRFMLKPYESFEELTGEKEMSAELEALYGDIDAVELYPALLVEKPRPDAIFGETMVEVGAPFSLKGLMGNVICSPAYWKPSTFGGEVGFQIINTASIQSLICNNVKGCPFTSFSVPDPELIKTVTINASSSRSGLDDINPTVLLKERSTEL
Assay: Inhibition of COX2 in human whole blood assessed as PGE2 biosynthesis after 24 hrs by EIA
MEASURED METRIC: IC50 (µM)

// solved cases for IC50 follow
CC(C(=O)[O-])c1ccc(CC2CCCC2=O)cc1.[Na+] (configuration not stated) [LOXOPROFEN SODIUM] : 10.1
CC(C(=O)O)c1ccc(C[C@@H]2CCC[C@@H]2O)cc1F (relative stereo) : 48
CC(C(=O)[O-])c1ccc(CC2CCCC2=O)cc1F.[Na+] (configuration not stated) : 14.3

(P) CC(C(=O)O)c1ccc(C[C@H]2CCC[C@@H]2O)cc1Br (relative stereo)
(Q) CC(C(=O)O)c1ccc(C[C@H]2CCC[C@@H]2O)cc1F (relative stereo)
(R) CC(C(=O)[O-])c1ccc(CC2CCCC2=O)cc1Br.[Na+] (configuration not stated)
(S) CC(C(=O)O)c1ccc(C[C@@H]2CCC[C@@H]2O)cc1Br (relative stereo)
Challenge: Sort the 4 compounds by IC50; largest first, smallest last. Answer format: list of labels, ordered as asked.
Response given: R, S, P, Q
(R: 65.3 µM, S: 34 µM, P: 8.5 µM, Q: 3.1 µM)
